Assign pIC50 to each entry below.
# target-under-test: bovine cardiac myofibrils (full-length cardiac myosin ATPase in the native sarcomere) (Bos taurus (Bovine), UniProt Q9BE39)
# Sequence (Q9BE39 whole entry): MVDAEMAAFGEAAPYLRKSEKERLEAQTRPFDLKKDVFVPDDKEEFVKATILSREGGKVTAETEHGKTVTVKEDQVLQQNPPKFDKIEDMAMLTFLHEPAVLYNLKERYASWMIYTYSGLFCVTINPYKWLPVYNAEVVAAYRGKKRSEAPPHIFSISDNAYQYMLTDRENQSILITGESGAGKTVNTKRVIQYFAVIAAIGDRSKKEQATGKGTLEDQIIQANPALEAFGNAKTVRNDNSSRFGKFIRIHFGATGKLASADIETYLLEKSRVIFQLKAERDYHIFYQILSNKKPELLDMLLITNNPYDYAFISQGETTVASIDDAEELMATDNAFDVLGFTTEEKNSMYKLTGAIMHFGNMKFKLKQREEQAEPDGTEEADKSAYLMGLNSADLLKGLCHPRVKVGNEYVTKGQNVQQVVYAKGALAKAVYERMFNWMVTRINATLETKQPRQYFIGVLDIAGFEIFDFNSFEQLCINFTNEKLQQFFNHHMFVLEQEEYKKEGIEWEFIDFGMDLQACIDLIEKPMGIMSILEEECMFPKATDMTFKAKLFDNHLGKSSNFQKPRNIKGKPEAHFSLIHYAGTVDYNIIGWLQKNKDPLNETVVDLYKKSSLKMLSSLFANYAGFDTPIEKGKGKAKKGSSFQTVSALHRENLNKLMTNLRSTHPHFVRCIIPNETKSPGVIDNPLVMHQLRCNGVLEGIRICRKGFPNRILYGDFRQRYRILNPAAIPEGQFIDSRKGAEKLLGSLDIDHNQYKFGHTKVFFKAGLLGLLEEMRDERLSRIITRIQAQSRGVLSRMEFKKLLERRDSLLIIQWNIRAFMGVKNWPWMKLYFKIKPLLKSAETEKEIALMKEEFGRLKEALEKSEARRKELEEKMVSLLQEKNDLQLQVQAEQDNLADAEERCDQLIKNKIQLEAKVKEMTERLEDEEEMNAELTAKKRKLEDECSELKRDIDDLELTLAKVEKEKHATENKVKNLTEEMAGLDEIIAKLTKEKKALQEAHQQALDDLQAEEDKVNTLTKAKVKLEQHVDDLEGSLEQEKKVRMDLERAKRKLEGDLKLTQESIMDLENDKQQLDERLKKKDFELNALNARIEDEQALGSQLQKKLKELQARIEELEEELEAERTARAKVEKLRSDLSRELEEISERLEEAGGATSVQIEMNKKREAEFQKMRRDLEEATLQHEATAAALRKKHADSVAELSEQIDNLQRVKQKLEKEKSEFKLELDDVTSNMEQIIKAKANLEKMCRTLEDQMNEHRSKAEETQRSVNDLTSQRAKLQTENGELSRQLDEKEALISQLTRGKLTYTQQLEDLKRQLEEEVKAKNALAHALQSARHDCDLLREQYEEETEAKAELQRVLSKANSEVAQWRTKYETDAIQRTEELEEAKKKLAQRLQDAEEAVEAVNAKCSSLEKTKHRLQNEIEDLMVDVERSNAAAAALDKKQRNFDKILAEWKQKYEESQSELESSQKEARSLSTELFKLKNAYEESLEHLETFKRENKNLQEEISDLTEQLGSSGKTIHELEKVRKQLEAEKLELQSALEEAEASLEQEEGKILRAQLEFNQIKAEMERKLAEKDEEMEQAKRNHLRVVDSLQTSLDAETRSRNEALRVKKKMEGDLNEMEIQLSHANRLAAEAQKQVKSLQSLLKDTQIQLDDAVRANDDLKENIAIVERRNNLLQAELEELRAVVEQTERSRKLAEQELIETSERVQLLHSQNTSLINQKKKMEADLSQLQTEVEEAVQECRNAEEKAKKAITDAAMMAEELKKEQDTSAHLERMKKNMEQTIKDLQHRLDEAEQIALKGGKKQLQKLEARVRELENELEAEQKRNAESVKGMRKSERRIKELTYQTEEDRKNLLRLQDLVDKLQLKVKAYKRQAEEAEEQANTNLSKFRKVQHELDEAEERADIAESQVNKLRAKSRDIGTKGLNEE
# Sequence (P85100 whole entry partner): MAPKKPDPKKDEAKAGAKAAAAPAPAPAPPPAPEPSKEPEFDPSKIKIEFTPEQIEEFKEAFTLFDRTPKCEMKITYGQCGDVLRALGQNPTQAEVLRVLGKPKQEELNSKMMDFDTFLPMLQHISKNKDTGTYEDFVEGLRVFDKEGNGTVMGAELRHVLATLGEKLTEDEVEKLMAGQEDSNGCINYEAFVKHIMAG
# Sequence (Q3SZE5 whole entry partner): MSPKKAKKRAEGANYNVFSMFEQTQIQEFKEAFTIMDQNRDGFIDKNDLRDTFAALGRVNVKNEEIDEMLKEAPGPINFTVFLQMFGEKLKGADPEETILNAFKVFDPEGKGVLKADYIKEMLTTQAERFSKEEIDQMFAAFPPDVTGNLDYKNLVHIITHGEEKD
# assay-details: Skinned bovine cardiac myofibril ATPase assay (PK/LDH-coupled)
# particulars: Ca2+ activating to 75% of maximal rate, read-out: CDMF75 IC50
pIC50: −log10 of the molar value.

Sample answers from the record:
# molecule, pIC50
records = [
    ("O=C(N[C@@H]1CCc2cc(-c3noc(C(F)F)n3)ccc21)OC1CNC1", "< 4.41"),
    ("CCc1nc(-c2ccc3c(c2)CC[C@H]3NC(=O)OCC2CN(C(C)=O)C2)no1", "< 4.41"),
]

May I ask what pIC50 has been recorded for Cc1nccc(-c2ccc3c(c2)CC[C@H]3NC(=O)c2ccnn2C)n1 ? < 4.41

====

# target-under-test: bovine cardiac myofibrils (full-length cardiac myosin ATPase in the native sarcomere) (Bos taurus (Bovine), UniProt Q9BE39)
# assay-details: Skinned bovine cardiac myofibril ATPase assay (PK/LDH-coupled)
# particulars: Ca2+ activating to 75% of maximal rate, read-out: CDMF75 IC50
metric-name: IC50 (µM)
Answers are plain numbers, in µM.

Below, 3 molecules whose answers are already recorded.
# molecule, metric-name, reported
records = [
    ("CCc1nc(-c2ccc3c(c2)OC[C@H]3NC(=O)OC)no1", "IC50", 0.9),
    ("CCc1nc(-c2ccc3c(c2)CC[C@H]3NC(=O)c2cnn(CCOC(C)=O)c2)no1", "IC50", 10),
    ("Cc1noc(-c2ccc3c(c2)OC[C@H]3NC(=O)c2ccnn2C)n1", "IC50", 2.4),
]

// batch mode: one IC50 value per listed entry
1. Cc1nc(-c2ccc3c(c2)CC[C@H]3NC(=O)c2oc(C)nc2C)no1
2. Cc1c(C(=O)N[C@@H]2CCc3cc(-c4noc(C5CCC5)n4)ccc32)cnn1C
3. Cc1cc(-c2ccc3c(c2)OC[C@H]3NC(=O)c2cnc(C)o2)no1
4. CCc1nc(-c2ccc3c(c2)CC[C@H]3NC(=O)OCC2CN(C(=O)NC)C2)no1
5. COCCCn1cc(C(=O)N[C@@H]2CCc3cc(-c4noc(C5CC5)n4)ccc32)cn1
6. CCc1nc(-c2ccc3c(c2)CC[C@H]3NC(=O)c2cnn(CC3(F)COC3)c2)no1

[5.2, 2, 3.4, 21.1, 16.5, 11.3]

====

# target-under-test: bovine cardiac myofibrils (full-length cardiac myosin ATPase in the native sarcomere) (Bos taurus (Bovine), UniProt Q9BE39)
# assay-details: Skinned bovine cardiac myofibril ATPase assay (PK/LDH-coupled)
# particulars: Ca2+ activating to 75% of maximal rate, read-out: CDMF75 IC50
pIC50: −log10 of the molar value.
metric-name: pIC50

Observe how each entry below is paired with its result.
# molecule, reported
data = [
    ("CC(=O)N1CC[C@@H]1C(=O)N[C@@H]1CCc2cc(-c3noc(C4CC4)n3)ccc21", "< 4.41"),
    ("CCc1nc(-c2ccc3c(c2)CC[C@H]3NC(=O)[C@H]2COCCN2)no1", "< 4.41"),
]

Report pIC50 for CCc1nc(-c2ccc3c(c2)CC[C@H]3NC(=O)[C@@H]2CCNC(=O)C2)no1 please. < 4.41

====

# target-under-test: bovine cardiac myofibrils (full-length cardiac myosin ATPase in the native sarcomere) (Bos taurus (Bovine), UniProt Q9BE39)
# assay-details: Skinned bovine cardiac myofibril ATPase assay (PK/LDH-coupled)
# particulars: Ca2+ activating to 75% of maximal rate, read-out: CDMF75 IC50
pIC50: −log10 of the molar value.
metric-name: pIC50

# molecule, pIC50
rows = [
    ("O=C(N[C@@H]1CCc2cc(-c3noc(C4CC4)n3)ccc21)OC1CCCC1", "< 4.41"),
    ("COCC(=O)N[C@@H]1CCc2cc(-c3noc(C(F)F)n3)ccc21", "< 4.41"),
]

// switching to the query molecule
Which pIC50 value is on record for O=C(N[C@@H]1CCc2cc(-c3noc(C(F)F)n3)ccc21)C1CCC1 ? < 4.41
